Molecular target: recombinant cruzain (Cz) (Trypanosoma cruzi)
Test: Cruzain enzyme inhibition
Assay type: biochemical
Settings: relative to compound 9; sign not given, direction by cell colour or wording
Assign difference in pKi, Cz to each entry below.
Give bare numbers.

molecule	value measured
C[C@@H](OCc1ccccc1)[C@@H](C#N)NC(=O)[C@H](Cc1ccccc1)NC(=O)c1cc(C(C)(C)C)nn1C [Compound 56]	-1.0
CC(C)C[C@H](NC(=O)c1cc(C(C)(C)C)nn1C)C(=O)N[C@H](C#N)[C@@H](C)OCc1ccccc1 [Compound 58]	0.6
Cn1nc(C(C)(C)C)cc1C(=O)N[C@@H](Cc1ccccc1)C(=O)N[C@H](C#N)Cc1ccccc1 [Compound 50]	0.4

Note: attention shifts to another entry.
Could you tell me which difference in pKi, Cz is on file for CC(C)C[C@H](NC(=O)c1cc(C(C)(C)C)nn1C)C(=O)NC1(C#N)CC1 [Compound 11] ?
0.5

---

Molecular target: recombinant cruzain (Cz) (Trypanosoma cruzi)
Assay: Cruzain enzyme inhibition
Format: biochemical
Details: SD lower than 15%; read-out: pKi Cz (converted)
property name: Ki (nM)
Answers are plain numbers, in nM.

entry smiles	value measured
C[C@@H](OCc1ccccc1)[C@H](NC(=O)c1cc(C(C)(C)C)nn1C)C(=O)NC1(C#N)CC1	7940
CC(C)C[C@H](NC(=O)c1ccnc2cc(Cl)ccc12)C(=O)NC1(C#N)CC1	15.8
CC(C)C[C@H](NC(=O)c1cc(C(C)(C)C)nn1C)C(=O)NC1(C#N)CC1	15.8
Cn1nc(C(C)(C)C)cc1C(=O)N[C@@H](Cc1ccccc1)C(=O)NC1(C#N)CC1	50.1
CC(C)C[C@H](NC(=O)c1ccc(N)nc1)C(=O)NC1(C#N)CC1	79.4
CC(C)C[C@H](NC(=O)c1cc(C(C)(C)C)nn1C)C(=O)N[C@H](C#N)[C@@H](C)OCc1ccccc1	12.6
Cn1nc(C(C)(C)C)cc1C(=O)N[C@@H](Cc1ccccc1)C(=O)N[C@H](C#N)Cc1ccccc1	20

// moving on: another record for Ki
Any idea what its Ki is? The compound is `N#CC1(NC(=O)[C@H](Cc2ccccc2)NC(=O)c2cccc(OC(=O)c3ccccc3)c2)CC1`
126

---

Experiment: Mammalian cytotoxicity assay (MTT);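 also: Read-out is absorbance at 570 nm of formazan taken up in DMSO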
Assay type: cell-based
Settings: rhesus monkey, LLCMK2 cells, LLCMK2, 72 h, MTT; Table 2; read-out: CC50 cytotoxicity
property name: CC50 at 72 h (µM)
Give bare numbers, in µM.

entry smiles	property name	value measured
CC(C)C[C@@H](C#N)NC(=O)[C@H](Cc1ccccc1)NC(=O)c1cc(C(C)(C)C)nn1C	CC50 at 72 h	97.9
Cn1nc(C(C)(C)C)cc1C(=O)N[C@@H](Cc1ccccc1)C(=O)N[C@H](C#N)Cc1cccc(Cl)c1	CC50 at 72 h	44.7
Cn1nc(C(C)(C)C)cc1C(=O)N[C@@H](Cc1ccccc1)C(=O)N[C@H](C#N)Cc1ccccc1	CC50 at 72 h	83.1

Continue with the next compound.
Consider the compound `Cn1nc(C(C)(C)C)cc1C(=O)N[C@@H](Cc1ccccc1)C(=O)N[C@@H](C#N)Cc1ccccc1` and give its measured CC50 at 72 h.
42.3

---

Target: cathepsin S (CatS) (Homo sapiens)
Sequence (P25774 115-331): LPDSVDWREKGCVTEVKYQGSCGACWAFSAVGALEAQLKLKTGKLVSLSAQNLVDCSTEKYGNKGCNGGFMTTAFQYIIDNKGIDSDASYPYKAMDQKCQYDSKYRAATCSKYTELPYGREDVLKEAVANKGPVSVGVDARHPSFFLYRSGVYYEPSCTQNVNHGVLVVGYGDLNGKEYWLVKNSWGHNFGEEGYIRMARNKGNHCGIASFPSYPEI
Test: Cathepsin S enzyme inhibition
Type: biochemical
Conditions: SD lower than 15%; read-out: pKi CatS (converted)
property name: log10(Ki) (log10 of the value in nM)
Answers are given as log10 of Ki in nM.

Example compounds with recorded log10(Ki):
compound	value measured
CC(C)C[C@H](NC(=O)c1cnc2[nH]ccc2c1)C(=O)NC1(C#N)CC1	1.70
Cn1nc(C(C)(C)C)cc1C(=O)N[C@@H](Cc1ccccc1)C(=O)N[C@H](C#N)Cc1ccccc1	1.70
Cn1nc(C(C)(C)C)cc1C(=O)N[C@@H](Cc1ccccc1)C(=O)NC1(C#N)CC1	2.20
CC(C)C[C@H](NC(=O)c1cc(C(C)(C)C)nn1C)C(=O)N[C@H](C#N)[C@@H](C)O	4.00
CC(C)C[C@@H](C#N)NC(=O)[C@H](Cc1ccccc1)NC(=O)c1cc(C(C)(C)C)nn1C	2.10

Batch of 3 compounds: report log10(Ki) for each.
1. CC(C)CC(C#N)NC(=O)[C@H](Cc1ccccc1)NC(=O)c1cc(C(C)(C)C)nn1C (stereo in doubt)
2. N#CC1(NC(=O)[C@H](Cc2ccccc2)NC(=O)c2cccc(OC(=O)c3ccccc3)c2)CC1
3. N#CC1(NC(=O)[C@H](Cc2cccc(Cl)c2)NC(=O)c2ccccc2)CC1

1. 3.00
2. 1.70
3. 1.30

---

Consider the following molecules; for each one, report its EC50.
Test system: T. cruzi Tulahuen LacZ strain, intracellular amastigote forms
Test: In vitro trypanocidal activity on intracellular amastigote forms (Tulahuen strain)
Assay type: cell-based, Trypanosoma cruzi
Settings: Trypanosoma cruzi, TULAHUEN, amastigote forms of T. cruzi (Tuhaluen strain); Figs 12-14, unit inferred; read-out: EC50

molecule	EC50
CC(C)C[C@H](NC(=O)c1cc(C(C)(C)C)nn1C)C(=O)N[C@H](C#N)[C@@H](C)OCc1ccccc1 [Compound 58]	> 100 µM

Consider the additional molecule presented here.
Query (molecule): CC(C)C[C@H](NC(=O)c1cc(C(C)(C)C)nn1C)C(=O)N[C@@H](C#N)[C@H](C)OCc1ccccc1 [Compound 59] ; field requested: EC50
> 100 µM

---

Molecular target: Leishmania mexicana CPB (LmCPB) (Leishmania mexicana, UniProt P36400)
Sequence (P36400 126-443): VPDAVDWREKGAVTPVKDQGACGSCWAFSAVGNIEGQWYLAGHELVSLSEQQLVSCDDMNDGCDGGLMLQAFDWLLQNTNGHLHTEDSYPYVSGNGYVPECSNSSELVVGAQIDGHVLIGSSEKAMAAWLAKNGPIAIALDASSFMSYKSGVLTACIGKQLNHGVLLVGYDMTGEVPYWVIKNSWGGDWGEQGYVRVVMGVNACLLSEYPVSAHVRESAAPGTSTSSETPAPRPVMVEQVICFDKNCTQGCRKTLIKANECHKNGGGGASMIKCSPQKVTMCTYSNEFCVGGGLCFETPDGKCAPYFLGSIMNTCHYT
Experiment: LmCPB enzyme inhibition
Assay type: biochemical
Conditions: SD lower than 15%; read-out: pKi LmCPB (converted)
property name: Ki (nM)
Numbers only, in nM.

compound	Ki, nM
C[C@@H](O)[C@@H](C#N)NC(=O)[C@H](Cc1cccc(Cl)c1)NC(=O)c1cc(C(C)(C)C)nn1C	1000

Consider the following items and state reported Ki for each.
1. CC(C)CC(C#N)NC(=O)[C@H](Cc1ccccc1)NC(=O)c1cc(C(C)(C)C)nn1C (stereo in doubt)
2. C[C@@H](OCc1ccccc1)[C@H](NC(=O)c1cc(C(C)(C)C)nn1C)C(=O)NC1(C#N)CC1
3. CC(C)C[C@H](NC(=O)c1ccc(N)nc1)C(=O)NC1(C#N)CC1
4. N#CC1(NC(=O)[C@H](Cc2c[nH]c3ccccc23)NC(=O)c2ccnc3cc(Cl)ccc23)CC1
5. Cn1nc(C(C)(C)C)cc1C(=O)N[C@@H](Cc1ccccc1)C(=O)N[C@H](C#N)Cc1ccccc1
6. Cn1nc(C(C)(C)C)cc1C(=O)N[C@@H](Cc1cccc(Cl)c1)C(=O)NC1(C#N)CC1

[398, 3160, 158, 2000, 15.8, 200]

Any idea what Ki came out for `N#CC1(NC(=O)[C@H](Cc2cccc(Cl)c2)NC(=O)c2ccccc2)CC1` on Leishmania mexicana CPB (LmCPB) (Leishmania mexicana, UniProt P36400)?
631

---

Test system: T. cruzi Tulahuen LacZ strain, intracellular amastigote forms
Experiment: In vitro trypanocidal activity on intracellular amastigote forms (Tulahuen strain)
Type: cell-based, Trypanosoma cruzi
Conditions: Trypanosoma cruzi, TULAHUEN, T. cruzi amastigote form; S1 Table; read-out: pEC50 (converted)
property name: EC50 (µM)
One number for each entry, in µM.

entry smiles	EC50, µM
Cn1nc(C(C)(C)C)cc1C(=O)N[C@@H](Cc1ccccc1)C(=O)N[C@@H](C#N)Cc1ccccc1	7.94

Given `Cn1nc(C(C)(C)C)cc1C(=O)N[C@@H](Cc1ccccc1)C(=O)N[C@H](C#N)Cc1cccc(Cl)c1` , state its recorded EC50.
15.8

---

Exercise: state measured Ki for each of the compounds provided.
Biological target: recombinant cruzain (Cz) (Trypanosoma cruzi, UniProt P25779)
Sequence (P25779 123-337): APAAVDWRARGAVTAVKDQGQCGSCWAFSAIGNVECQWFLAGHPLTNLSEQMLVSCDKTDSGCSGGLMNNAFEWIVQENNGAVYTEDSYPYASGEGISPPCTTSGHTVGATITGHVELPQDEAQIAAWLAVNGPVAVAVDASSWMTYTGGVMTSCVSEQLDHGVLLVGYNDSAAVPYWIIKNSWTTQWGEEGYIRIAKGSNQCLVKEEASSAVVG
Test: Cruzain enzyme inhibition
Format: biochemical
Details: SD lower than 15%; read-out: pKi Cz (converted)
One number for each entry, in nM.

Below, 3 compounds whose answers are already recorded.
entry smiles	property name	value measured
Cn1nc(C(C)(C)C)cc1C(=O)N[C@@H](Cc1ccncc1)C(=O)NC1(C#N)CC1	Ki	251
N#CC1(NC(=O)[C@H](Cc2cccc(Cl)c2)NC(=O)c2ccccc2)CC1	Ki	126
C[C@H](O)[C@H](C#N)NC(=O)[C@H](Cc1ccccc1)NC(=O)c1cc(C(C)(C)C)nn1C	Ki	3980

Name the reported Ki value associated with the compound `Cn1nc(C(C)(C)C)cc1C(=O)N[C@@H](Cc1cccc(Cl)c1)C(=O)NC1(C#N)CC1`
39.8

---

Test system: T. cruzi Tulahuen LacZ strain, intracellular amastigote forms
Experiment: In vitro trypanocidal activity on intracellular amastigote forms (Tulahuen strain)
Assay type: cell-based, Trypanosoma cruzi
Conditions: Trypanosoma cruzi, TULAHUEN, T. cruzi amastigote form; S1 Table; read-out: pEC50 (converted)
property name: EC50

Previously resolved entries follow.
compound	EC50
C[C@@H](O)[C@@H](C#N)NC(=O)[C@H](Cc1cccc(Cl)c1)NC(=O)c1cc(C(C)(C)C)nn1C [Compound 69]	31.6 µM
O=C(Cn1ccnc1[N+](=O)[O-])NCc1ccccc1 [Benznidazole, reference compound]	3.98 µM
C[C@@H](O)[C@@H](C#N)NC(=O)[C@H](Cc1ccccc1)NC(=O)c1cc(C(C)(C)C)nn1C [Compound 65]	79.4 µM

Would you kindly look at the next entry?
What reported EC50 corresponds to CC(C)C[C@H](NC(=O)c1cc(C(C)(C)C)nn1C)C(=O)N[C@H](C#N)[C@@H](C)OCc1ccccc1 [Compound 58] on T. cruzi Tulahuen LacZ strain, intracellular amastigote forms?
> 100 µM

Reference for the values: paper PMC7067379
